Provide the reported % Inhibition of VEGF165-mediated pTyr Activity, n = 1 of each item.
Molecular target: human KDR (VEGFR2) on cells (human, UniProt P35968 20-1356); also: test concentration or dose not given here
Sequence (P35968 20-1356): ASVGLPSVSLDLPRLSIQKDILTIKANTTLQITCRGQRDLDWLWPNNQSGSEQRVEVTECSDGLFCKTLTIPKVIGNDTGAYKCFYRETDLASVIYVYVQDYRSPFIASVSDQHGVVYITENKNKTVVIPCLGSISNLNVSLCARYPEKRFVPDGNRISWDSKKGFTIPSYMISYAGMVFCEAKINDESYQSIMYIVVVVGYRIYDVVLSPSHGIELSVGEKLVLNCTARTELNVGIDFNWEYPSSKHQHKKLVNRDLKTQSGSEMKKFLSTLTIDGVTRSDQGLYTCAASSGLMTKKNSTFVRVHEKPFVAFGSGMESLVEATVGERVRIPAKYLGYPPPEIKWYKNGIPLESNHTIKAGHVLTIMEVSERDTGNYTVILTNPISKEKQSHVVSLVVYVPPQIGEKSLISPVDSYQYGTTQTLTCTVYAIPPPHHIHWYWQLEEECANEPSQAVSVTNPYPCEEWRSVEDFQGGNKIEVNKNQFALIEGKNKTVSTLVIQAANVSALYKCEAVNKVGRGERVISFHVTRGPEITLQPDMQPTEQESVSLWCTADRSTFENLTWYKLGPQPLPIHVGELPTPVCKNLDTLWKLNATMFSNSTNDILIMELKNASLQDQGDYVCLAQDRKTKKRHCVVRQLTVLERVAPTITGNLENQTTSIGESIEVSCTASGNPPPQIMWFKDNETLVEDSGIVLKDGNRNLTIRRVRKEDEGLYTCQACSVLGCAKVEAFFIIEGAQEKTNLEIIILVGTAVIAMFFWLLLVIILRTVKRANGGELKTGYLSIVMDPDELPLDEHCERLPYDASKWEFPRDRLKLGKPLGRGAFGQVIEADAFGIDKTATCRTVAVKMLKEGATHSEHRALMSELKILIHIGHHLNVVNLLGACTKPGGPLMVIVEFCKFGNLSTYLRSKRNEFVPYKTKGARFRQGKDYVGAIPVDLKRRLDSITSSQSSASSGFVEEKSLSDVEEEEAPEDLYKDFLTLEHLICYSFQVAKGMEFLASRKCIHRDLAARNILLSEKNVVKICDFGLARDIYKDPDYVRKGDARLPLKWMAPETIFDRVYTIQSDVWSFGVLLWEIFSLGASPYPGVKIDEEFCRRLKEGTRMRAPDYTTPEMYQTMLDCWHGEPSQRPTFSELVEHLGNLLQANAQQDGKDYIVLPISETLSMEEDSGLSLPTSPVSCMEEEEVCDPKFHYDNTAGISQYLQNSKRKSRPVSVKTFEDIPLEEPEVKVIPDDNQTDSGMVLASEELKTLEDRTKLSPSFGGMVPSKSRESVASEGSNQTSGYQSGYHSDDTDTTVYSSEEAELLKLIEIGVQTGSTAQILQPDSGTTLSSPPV
Assay: cell-based or functional assay
Please state the value followed by its unit.

For anti-KDR monoclonal antibody 30A1 (antibody, V domains shown, Fully human mAb from XenoMouse (IgG2 or IgG4 strain); hybridoma supernatant) VH: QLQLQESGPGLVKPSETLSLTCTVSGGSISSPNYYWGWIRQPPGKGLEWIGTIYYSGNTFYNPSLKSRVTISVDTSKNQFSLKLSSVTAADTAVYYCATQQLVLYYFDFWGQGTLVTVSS VL: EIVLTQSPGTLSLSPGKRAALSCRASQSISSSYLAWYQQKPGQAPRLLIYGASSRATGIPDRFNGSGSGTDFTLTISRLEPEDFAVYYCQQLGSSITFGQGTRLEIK , what is its reported % Inhibition of VEGF165-mediated pTyr Activity, n = 1? 86%

Requested field: % Inhibition of VEGF165-mediated pTyr Activity, n = 1. Item: anti-KDR monoclonal antibody 27A3 (antibody, V domains shown, Fully human mAb from XenoMouse (IgG2 or IgG4 strain); hybridoma supernatant) VH: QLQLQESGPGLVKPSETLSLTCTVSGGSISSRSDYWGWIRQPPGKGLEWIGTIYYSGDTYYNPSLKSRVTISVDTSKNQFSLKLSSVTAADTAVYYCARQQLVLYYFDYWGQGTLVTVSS VL: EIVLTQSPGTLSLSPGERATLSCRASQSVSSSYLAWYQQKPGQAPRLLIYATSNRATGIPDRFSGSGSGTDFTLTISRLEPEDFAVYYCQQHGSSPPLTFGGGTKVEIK 60%
